Experiment: qHTS Validation assay for Inhibitors of Plasmodium falciparum Dd2 growth in vitro; also: potency is read from the fitted curve at half-maximal effect; nearly all actives have a fitted effect of over 70% in size
Settings: P. falciparum Dd2 in RBCs, SYBR Green growth, 72 h; series mostly up to 28.7 µM
The whole screen tested about 4,100 compounds, of which about 1,600 (39%) were called active. About 25% were inconclusive and are not listed. This is one part of the list.
PROPERTY NAME: Potency

Some entries whose results are on file:
O=C(C1CC1)N1CCc2cc(Br)cc(S(=O)(=O)N3CCN(c4cccc(C(F)(F)F)c4)CC3)c21    4.73 µM (active)
Cc1cc(N2CCC(C)CC2)nc(-n2nc(C)cc2C)n1    2.99 µM (active)

Note Potency for the compound shown: `COc1ccc(/C=N/Nc2cc(C)nc(-n3nc(C)cc3C)n2)c(OC)c1`
5.31 µM (active)

Note Potency for the compound shown: `CNc1cc(C)nc(-n2nc(C)cc2C)n1`
8.41 µM (active)

Note Potency for the compound shown: `O=C(CCS(=O)(=O)c1cc(Br)cc2c1N(C(=O)C1CC1)CC2)N1CCN(c2cccc(Cl)c2)CC1`
13.3 µM (active)

Numbers sourced from PubChem BioAssay AID1347416.
